# target: Peroxisome proliferator-activated receptor delta (Homo sapiens, UniProt Q03181)
# Sequence (Q03181 whole entry): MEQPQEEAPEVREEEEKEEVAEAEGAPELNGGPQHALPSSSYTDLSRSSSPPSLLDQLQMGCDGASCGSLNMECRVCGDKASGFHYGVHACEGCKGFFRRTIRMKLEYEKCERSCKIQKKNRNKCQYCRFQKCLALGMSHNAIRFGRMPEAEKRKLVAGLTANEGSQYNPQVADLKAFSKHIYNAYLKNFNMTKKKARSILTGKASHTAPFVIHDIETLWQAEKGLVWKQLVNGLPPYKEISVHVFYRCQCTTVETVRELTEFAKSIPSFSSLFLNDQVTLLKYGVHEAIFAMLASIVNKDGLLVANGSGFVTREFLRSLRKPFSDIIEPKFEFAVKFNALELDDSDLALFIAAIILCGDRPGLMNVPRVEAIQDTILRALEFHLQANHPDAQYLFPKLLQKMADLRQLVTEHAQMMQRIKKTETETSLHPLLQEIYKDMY
# method-notes: Induction of PPARdelta-mediated PDK4 mRNA upregulation in human myoblast after 24 hrs
attribute-measured: pEC50
// pEC50 here means minus log10 of the molar concentration (mol/L)

| compound | target | quantitative-readout |
| --- | --- | --- |
| Cc1cc(CN2Cc3ccccc3C[C@H]2C(=O)Nc2ccc(Cl)cc2Cl)ccc1OCC(=O)O | Peroxisome proliferator-activated receptor delta (Homo sapiens, UniProt Q03181) | 7.82 |

Switching to the query record.
Query block: Supply measured pEC50 of Cc1cc(CN2CCc3ccccc3C2C(=O)Nc2ccc(Cl)cc2Cl)ccc1OCC(=O)O (racemic) in your reply.
Result block: 7.15
